PROTOCOL: qHTS of pediatric cancer cell lines to identify multiple opportunities for drug repurposing: Primary screen for RD cells (AID 1347104); further: nearly all actives have a fitted effect of over 55% in size
CONDITIONS: RD rhabdomyosarcoma viability, CellTiter-Glo luminescence, 48 h; series mostly up to 46 µM
Records with an inconclusive call do not appear. The source made the active and inactive calls. The call rests on the fitted dose curve; in most records, active means well fitted cell-killing curve with a large enough effect; inconclusive means small, poorly fitted or top-dose-only effect; inactive means flat fitted curve, though single readings scatter.
Assign a class; possible classes are active, inactive

Example cases with answers are listed next.
{"COMPOUND": "CC(C)(O)C(Cl)(Cl)Cl", "CLASS LABEL": "inactive"}
{"COMPOUND": "COc1cc(CC(C)N)cc2c1OCO2 (centres undefined)", "CLASS LABEL": "inactive"}
{"COMPOUND": "CCC(=O)OC1(c2ccccc2)CCN(C)CC1", "CLASS LABEL": "inactive"}
{"COMPOUND": "CCC1(CC)C(=O)NC(=O)NC1=O", "CLASS LABEL": "inactive"}
{"COMPOUND": "CC[C@]1(O)CC[C@H]2[C@@H]3CCC4=CCCC[C@@H]4[C@H]3CC[C@@]21C", "CLASS LABEL": "inactive"}

Problem: Fill in: this test's call for Cc1ccc([N+](=O)[O-])[c]2c1[O][Hg]2 is ___
Solution: active

Problem: What call does the record list for Nc1ccc(N)cc1 ?
Solution: inactive

Problem: Recorded call for COP(=O)(OC)OC=C(Cl)Cl ?
Solution: inactive

Problem: Would you mind telling me which call this test gave C[C@]12CC[C@H]3[C@@H](CCC4=CC(=O)CC[C@@H]43)[C@@H]1CC[C@@H]2O ?
Solution: inactive

Problem: Dear all, I need the recorded test outcome for O=C(O)c1nn(Cc2ccc(Cl)cc2Cl)c2ccccc12 , thank you.
Solution: inactive

Problem: Called result for C1CN2CCC1CC2
Solution: inactive

Problem: Please share the test call associated with Oc1ccc([C@H]2CNCc3c2ccc(O)c3O)cc1O .
Solution: inactive

Problem: So what was the verdict on CCS(=O)(=O)C(C)(C)S(=O)(=O)CC in this test?
Solution: inactive

Problem: Field: outcome | Entry: COC(=O)C1=CCCN(C)C1
Solution: inactive

Problem: Record lookup: outcome of this test for COc1cc(CC#N)cc(OC)c1OC ?
Solution: inactive

Problem: Which result was noted for this compound in the test: CC[C@H]1C[C@H]2[C@@H]3CCC4=CC(=O)CC[C@@H]4[C@H]3CC[C@]2(C)[C@H]1O
Solution: inactive

Problem: What did the test return for C[C@H]1CNCCc2ccc(Cl)cc21 ?
Solution: inactive

Problem: Field: outcome | Entry: CC1N=C(N)OC1c1ccccc1 (centres undefined)
Solution: inactive

Problem: Please let me know the test result on file for CN1C[C@@H](NS(=O)(=O)N(C)C)C[C@@H]2c3cccc4c3c(cn4C)C[C@H]21 .
Solution: inactive
